- Tested on: primary macaque hepatocytes (PMHs)
- experiment_description: CometChip assay
- condition: PMH, 90 % confidence interval of BMD50
Provide the recorded BMDL50–BMDU50 for the entries that follow.

The following compounds have reported results that may help.
{"compound": "O=P1(N(CCCl)CCCl)NCCCO1 (centres unmarked) [CPA, cyclophosphamide]", "value_reported": "165 to 372 µM"}
{"compound": "[Cl][Cd][Cl] [CdCl2, cadmium chloride]", "value_reported": "0.2 to 0.5 µM"}
{"compound": "Cc1c2ccccc2c(C)c2c1ccc1ccccc12", "value_reported": "2.6 to 6.1 µM"}
{"compound": "Cc1ccc(N)cc1N", "value_reported": "1790 to 4660 µM"}

Switching to the query record.
[Q] Query (compound): `CCN(N=O)C(N)=O` ; field requested: BMDL50–BMDU50
[A] 439 to 1030 µM

Source: paper PMC12412453
